Target: CDK2/Cyclin E1 (Homo sapiens, UniProt P24941)
Assay: CDK2/Cyclin E1 Caliper LabChip EZ Reader mobility shift assay
Type: biochemical
Set-up: purchased Eurofins 14-475
Settings: read-out: Caliper Assay (CDK2/CCNE1): IC50
Experimental: Inhibition of CDK2/Cyclin E1 activity in the presence of compounds of the present disclosure was evaluated using a Caliper LabChip® EZ Reader mobility shift assay. […] The peptide substrate and product were measured, and the conversion ratio was used to determine the inhibition (as % activity and IC50 values) of CDK2/Cyclin E1. […]
pIC50: −log10 of the molar value.
Catalogue of pIC50 readings, one per entry.
measured attribute: pIC50

1. CNC(=O)[C@@H](NC(=O)[C@@H]1CN(C(=O)c2cnn(Cc3ccccc3)c2)CC12CN(C(=O)CC(C)(C)C)C2)[C@@H](C)OCc1ccccc1 [I-62A]
6.00 to 7.00
2. COC[C@H]1CCCN(C(=O)[C@@H](NC(=O)[C@@H]2CN(C(=O)c3cncs3)CC23CN(C(=O)[C@H]2CC2(C)C)C3)[C@@H](C)OCc2cccc(F)c2)C1
≥ 8.00
3. C[C@@H](OCc1ccccc1)[C@H](NC(=O)C1CN(C(=O)c2cnn(Cc3ccccc3)c2)CC12CN(C(=O)[C@H]1CC1(C)C)C2)C(=O)N1CCCCC1 (stereo partly drawn)
7.00 to 8.00
4. C[C@@H](OCC1CCCCC1)[C@H](NC(=O)[C@H]1CN(C(=O)c2cnn(Cc3ccccc3)c2)CC12CN(C(=O)[C@H]1CC1(C)C)C2)C(=O)N1CCOCC1 [I-152B]
5.00 to 6.00
5. CNC(=O)[C@@H](NC(=O)[C@H]1CN(C(=O)c2cnn(Cc3ccccc3)c2)CC12CN(C(=O)[C@H]1CC1(C)C)C2)[C@@H](C)OCC1CCCCC1 [I-123B]
6.00 to 7.00
6. CNC(=O)[C@@H](NC(=O)[C@@H]1CN(C(=O)c2cncs2)CC12CN(C(=O)[C@H]1CC1(C)C)C2)[C@@H](C)OCC12CCC(CC1)OC2
7.00 to 8.00

====

Catalogue of IC50 readings, one per entry.
biological target: CDK2/Cyclin E1 (Homo sapiens, UniProt P24941); test: CDK2/Cyclin E1 Caliper LabChip EZ Reader mobility shift assay; format: biochemical; parameters: purchased Eurofins 14-475; conditions: read-out: Caliper Assay (CDK2/CCNE1): IC50
measured attribute: IC50

1) CNC(=O)[C@@H](NC(=O)[C@H]1CN(C(=O)C2CCOCC2)CC12CN(C(=O)[C@H]1CC1(C)C)C2)[C@@H](C)OCc1ccccc1 [I-38B]
> 10 µM
2) COc1cccc(CNC(=O)[C@@H]2CN(C(=O)c3cnn(Cc4ccccc4)c3)CC23CN(C(=O)[C@H]2CC2(C)C)C3)n1 [I-126A]
> 10 µM
3) CNC(=O)[C@@H](NC(=O)[C@@H]1CN(C(=O)c2cnn(Cc3ccccc3)c2)CC12CN(C(=O)NC(C)C)C2)[C@@H](C)OCC1CCCCC1 [I-267]
1 to 10 µM

====

Catalogue of IC50 readings, one per entry.
target: CDK2/Cyclin E1 (Homo sapiens, UniProt P24941); experiment: CDK2/Cyclin E1 Caliper LabChip EZ Reader mobility shift assay; assay type: biochemical; design: purchased Eurofins 14-475; conditions: read-out: Caliper Assay (CDK2/CCNE1): IC50
measured attribute: IC50

1. Cc1nc(C)c(C(=O)N2C[C@@H](C(=O)N[C@H](C(=O)N3CCC(OC(F)(F)F)CC3)[C@@H](C)OCC34CCC(CC3)OC4)C3(C2)CN(C(=O)[C@H]2CC2(C)C)C3)s1 [I-455]
10 to 100 nM
2. CNC(=O)[C@@H](NC(=O)[C@@H]1CN(C(=O)c2cncs2)CC12CN(C(=O)[C@H]1CC1(C)C)C2)[C@@H](C)OCC1CCCC2(CC2)C1 (stereo partly drawn) [I-370]
≤ 10 nM
3. CNC(=O)[C@@H](NC(=O)[C@@H]1CN(C(=O)c2cnn(Cc3ccccc3)c2)CC12CN(C(=O)[C@H]1CC1(C)C)C2)[C@@H](C)SCc1ccccc1 [I-368]
100 to 1000 nM

====

biological target: CDK2/Cyclin E1 (Homo sapiens); assay: HotSpot kinase inhibition assay (radiometric, Histone H1 substrate); type: biochemical; settings: 10 μM ATP, read-out: Kinase Assay (CDK2/CCNE): IC50
Catalogue of IC50 readings, one per entry.
measured attribute: IC50

1. CC1(C)C[C@@H]1C(=O)N1CC2(CN(C(=O)c3cnn(Cc4ccccc4)c3)C[C@H]2C(=O)NCc2ccc(Cl)nn2)C1
1 to 10 µM
2. CNC(=O)[C@@H](NC(=O)C1CN(C(=O)c2cnn(Cc3ccncc3)c2)CC12CN(C(=O)C1CC1(C)C)C2)[C@@H](C)OCc1ccccc1 (stereo partly drawn)
≤ 1 µM
3. CNC(=O)[C@@H](NC(=O)C1CN(C(=O)c2cnn(Cc3ccccc3)c2)CC12CN(C(=O)C1CC1(C)C)C2)[C@@H](C)OCC1CCCCC1 (mixture of isomers)
≤ 1 µM
4. COC[C@H]1CCCN(C(=O)[C@@H](NC(=O)[C@@H]2CN(C(=O)c3cncs3)CC23CN(C(=O)[C@H]2CC2(C)C)C3)[C@@H](C)OCC2CCCCC2)C1 [I-196A]
≤ 1 µM
5. Cc1ccc(CNC(=O)[C@@H]2CN(C(=O)c3cncs3)CC23CN(C(=O)[C@H]2CC2(C)C)C3)nn1
10 to 100 µM
6. COC[C@H]1CCCN(C(=O)[C@@H](NC(=O)[C@@H]2CN(C(=O)c3cncs3)CC23CN(C(=O)[C@H]2CC2(C)C)C3)[C@@H](C)O[C@H](C)C2CCCCC2)C1 [I-367]
≤ 1 µM
7. C[C@@H](OCC1CCCCC1)[C@H](NC(=O)[C@@H]1CN(C(=O)c2cnn(Cc3ccccc3)c2)CC12CN(C(=O)[C@H]1CC1(C)C)C2)C(C)(C)O
≤ 1 µM
8. CNC(=O)[C@@H](NC(=O)[C@@H]1CN(C(=O)c2cn[nH]c2)CC12CN(C(=O)C1CC1(C)C)C2)[C@@H](C)OCc1ccccc1 (stereo partly drawn)
≤ 1 µM
9. CNC(=O)[C@@H](NC(=O)[C@H]1CN(C(=O)c2cnn(Cc3ccccc3)c2)CC12CN(C(=O)OC(C)(C)C)C2)[C@@H](C)OCc1ccccc1
1 to 10 µM
10. CNC(=O)[C@@H](NC(=O)[C@H]1CN(C(=O)c2cnn(Cc3ccccc3)c2)CC12CN(C(=O)C1CC(C)(C)C1)C2)[C@@H](C)OCc1ccccc1
> 100 µM
11. Cc1ccc(CNC(=O)[C@@H]2CN(C(=O)c3cnn(Cc4ccccc4)c3)CC23CN(C(=O)[C@H]2CC2(C)C)C3)nn1
≤ 1 µM
12. CNC(=O)[C@@H](NC(=O)C1CN(C(=O)c2cnn(C)c2)CC12CN(C(=O)C1CC1(C)C)C2)[C@@H](C)OCc1ccccc1 (stereo partly drawn)
1 to 10 µM
13. CNC(=O)[C@H](COCc1ccccc1)NC(=O)C1CN(C(=O)c2cnn(Cc3ccccc3)c2)CC12CN(C(=O)C1CC1(C)C)C2 (stereo partly drawn)
1 to 10 µM
14. CNC(=O)[C@@H](NC(=O)[C@@H]1CN(C(=O)c2cnn(Cc3ccccc3)c2)CC12CN(C(=O)OC(C)(C)C)C2)[C@@H](C)OCc1ccccc1
≤ 1 µM
15. CC1(C)C[C@@H]1C(=O)N1CC2(CN(C(=O)c3cnn(Cc4ccccc4)c3)C[C@H]2C(=O)NCc2ccc(C3CCCCC3)nn2)C1
≤ 1 µM
16. CNC(=O)[C@@H](NC(=O)C1CN(C(=O)c2cnn(CC3CCCCC3)c2)CC12CN(C(=O)C1CC1(C)C)C2)[C@@H](C)OCc1ccccc1 (stereo partly drawn)
≤ 1 µM
17. CNC(=O)[C@@H](NC(=O)C1CN(C(=O)c2cnn(Cc3ccccc3)c2)CC12CN(C(=O)C1CC1(C)C)C2)[C@@H](C)OC (stereo partly drawn)
10 to 100 µM
18. CNC(=O)[C@@H](NC(=O)[C@H]1CN(C(=O)c2cnn(Cc3ccccc3)c2)CC12CN(C(=O)CC1CC1)C2)[C@@H](C)OCc1ccccc1
10 to 100 µM
19. C[C@H](CNC(=O)C1CN(C(=O)c2cnn(Cc3ccccc3)c2)CC12CN(C(=O)C1CC1(C)C)C2)OCc1ccccc1 (stereo partly drawn)
≤ 1 µM
20. CNC(=O)[C@@H](NC(=O)[C@@H]1CN(C(=O)c2cnn(Cc3ccccc3)c2)CC12CN(C(=O)CC1CC1)C2)[C@@H](C)OCc1ccccc1
1 to 10 µM
21. COC[C@H]1CCCN(C(=O)[C@@H](NC(=O)[C@@H]2CN(C(=O)c3cncs3)CC23CN(C(=O)[C@H]2CC2(C)C)C3)[C@@H](C)O[C@H](C)C2CCCCC2)C1 [I-466]
≤ 1 µM
22. CNC(=O)[C@@H](NC(=O)C1CN(C(=O)c2cnn(Cc3ccccn3)c2)CC12CN(C(=O)C1CC1(C)C)C2)[C@@H](C)OCc1ccccc1 (stereo partly drawn)
≤ 1 µM
23. CNC(=O)[C@@H](NC(=O)C1CN(C(=O)c2cnn(Cc3ccccc3)c2)CC12CN(C(=O)C1CC1(C)C)C2)[C@@H](C)O (stereo partly drawn) [I-88 mixture]
10 to 100 µM
24. CNC(=O)[C@@H](NC(=O)[C@H]1CN(C(=O)c2cn[nH]c2)CC12CN(C(=O)C1CC1(C)C)C2)[C@@H](C)OCc1ccccc1 (stereo partly drawn)
1 to 10 µM
